Hi there, I'd appreciate the recorded Molar light absorption coefficient for every entry that follows.
# protocol-summary: Evaluation of maximum absorption wavelength (absorption spectrum in tetrahydrofuran solution)
# Assay type: physicochemical
# protocol-conditions: 1×10^−6 mol/L, optical path length 10 mm (Table 7)

The reported value for CC1(C)Nc2cccc3c(N=Nc4ccc(N=Nc5ccccc5C#N)c5ccccc45)ccc(c23)N1 [(1-38)] in terms of Molar light absorption coefficient is 28,900 L · mol^−1 · cm^−1

Lab note: CCCCC(CC)C(=O)OCC1(C)Nc2cccc3c(N=Nc4ccc(N=Nc5ccccc5Cl)c5ccccc45)ccc(c23)N1 (stereo not shown) [(1-20)] gave Molar light absorption coefficient of 33,800 L · mol^−1 · cm^−1

Lab note: CC1(C)Nc2cccc3c(N=Nc4ccc(N=Nc5ccccc5F)c5ccccc45)ccc(c23)N1 [(1-31)] gave Molar light absorption coefficient of 35,000 L · mol^−1 · cm^−1

Recorded result, CC1CCCCC12Nc1cccc3c(N=Nc4ccc(N=Nc5ccccc5Cl)c5ccccc45)ccc(c13)N2 (stereo not shown) [(1-27)] , Molar light absorption coefficient: 34,800 L · mol^−1 · cm^−1

----------
# protocol-summary: Evaluation 2 of heat stability, powder heated at 200° C. for 5 minutes
# Format: physicochemical
# protocol-conditions: oven 200° C. for 5 minutes, A2/A0×100, absorbance in tetrahydrofuran
For each entry below, report its Residual rate of compound value.
Just the number in %, nothing appended.

Just so you know, measured Residual rate of compound for CC1(C)Nc2cccc3ccc(N=Nc4ccc(N=Nc5ccccc5[N+](=O)[O-])c5ccccc45)c(c23)N1 [(3-5)] came out at 95

Measured Residual rate of compound, CC1(C)Nc2cccc3ccc(N=Nc4ccc(N=Nc5ccccc5C#N)c5ccccc45)c(c23)N1 [(3-4)] : 88

The recorded Residual rate of compound for entry CC1(C)Nc2cccc3c(N=Nc4ccc(N=Nc5ccccc5)c5ccccc45)ccc(c23)N1 [Comparative compound C, reference compound] equals 59

Residual rate of compound recorded for this compound, CC(=O)c1ccccc1N=Nc1ccc(N=Nc2ccc3cccc4c3c2NC(C)(C)N4)c2ccccc12 [(3-6)] , is 96

Summary for this compound, COC(=O)c1ccccc1N=Nc1ccc(N=Nc2ccc3cccc4c3c2NC(C)(C)N4)c2ccccc12 [(3-3)] : Residual rate of compound is 86

GET /value?item= CC(C)C1(C)Nc2cccc3ccc(N=Nc4ccc(N=Nc5ccccc5Cl)c5ccccc45)c(c23)N1 (stereo not shown) [(3-9)] &field=Residual rate of compound returns 85

Entry CCCC1(C)Nc2cccc3ccc(N=Nc4ccc(N=Nc5ccccc5Cl)c5ccccc45)c(c23)N1 (stereo not shown) [Compound (3-7)] — recorded Residual rate of compound = 85

----------
# protocol-summary: Evaluation of heat stability (heat resistance), powder heated at 180° C. for 5 minutes
# Type: physicochemical
# protocol-conditions: oven 180° C. for 5 minutes, A/A0×100, absorbance in tetrahydrofuran
Could you please report measured Residual rate of compound for the items listed next?
Record the value in %, omitting the unit from your answer.

Data point: CCCCC(CC)C(=O)OCC1(C)Nc2cccc3c(N=Nc4ccc(N=Nc5ccccc5Cl)c5ccccc45)ccc(c23)N1 (centres unmarked) ; Residual rate of compound = 84

Field Residual rate of compound (entry `CC1(C)Nc2cccc3c(N=Nc4ccc(N=Nc5ccccc5C#N)c5ccccc45)ccc(c23)N1` ) reads 92

# Residual rate of compound of CC1(C)Nc2cccc3c(N=Nc4ccc(N=Nc5cccc(F)c5)c5ccccc45)ccc(c23)N1 [Comparative compound A, reference compound] = 63

Form: molecule = CC1(CC#N)Nc2cccc3c(N=Nc4ccc(N=Nc5ccccc5Cl)c5ccccc45)ccc(c23)N1 (centres unmarked) ; Residual rate of compound = 77

Field Residual rate of compound (entry CC1(C)Nc2cccc3c(N=Nc4ccc(N=Nc5ccc(F)cc5)c5ccccc45)ccc(c23)N1 [Comparative compound B, reference compound] ) reads 64

GET /value?item= `CC1(C)Nc2cccc3c(N=Nc4ccc(N=Nc5ccccc5Br)c5ccccc45)ccc(c23)N1` &field=Residual rate of compound returns 74

Residual rate of compound measured on CC1CCCCC12Nc1cccc3c(N=Nc4ccc(N=Nc5ccccc5Cl)c5ccccc45)ccc(c13)N2 (centres unmarked) = 81

The molecule listed as CCCCC1(C)Nc2cccc3c(N=Nc4ccc(N=Nc5ccccc5Cl)c5ccccc45)ccc(c23)N1 (centres unmarked) has a reported Residual rate of compound of 81

Where do the numbers come from? From patent US20210214560A1.
